src = patent US7879825B2

# System: PGE2-induced thermal hypersensitivity
# assay overview: Reversal of prostaglandin E2 (PGE2)-induced thermal hypersensitivity, warm-water tail withdrawal
# Type: in vivo, Sprague-Dawley rats
# measurement conditions: 10 mg/kg, single oral (PO) dose before PGE2 injection into tail; assessed 30 min after PGE2; SEM in parentheses
Marks after values point to notes of the source that are not given here.
Reported Reversal of PGE2-induced thermal hypersensitivity, % MPE (±1 SEM) values for the following compounds.

compound="O=c1c2c(c1=O)N(CCP(=O)(O)O)CCCN2 [Comparative 1, reference compound]" measured="−4.7 (10.6)** % MPE"
compound=CC(C)OC(=O)OCOP(=O)(CCN1CCCNc2c1c(=O)c2=O)OCOC(=O)OC(C)C measured="47.0 (12.6) % MPE"
compound=O=C(OCOP(=O)(CCN1CCCNc2c1c(=O)c2=O)OCOC(=O)c1ccccc1)c1ccccc1 measured="57.2 (4.7) % MPE"

Now for another entry.
# `CCCC(CCC)C(=O)OCOP(=O)(CCN1CCCNc2c1c(=O)c2=O)OCOC(=O)C(CCC)CCC` with PGE2-induced thermal hypersensitivity: Reversal of PGE2-induced thermal hypersensitivity, % MPE (±1 SEM) is 45.6 (13.9) % MPE
